# measurement.target: Luciferin 4-monooxygenase (Photinus pyralis) (UniProt P08659)
# Sequence (P08659 whole entry, looked up): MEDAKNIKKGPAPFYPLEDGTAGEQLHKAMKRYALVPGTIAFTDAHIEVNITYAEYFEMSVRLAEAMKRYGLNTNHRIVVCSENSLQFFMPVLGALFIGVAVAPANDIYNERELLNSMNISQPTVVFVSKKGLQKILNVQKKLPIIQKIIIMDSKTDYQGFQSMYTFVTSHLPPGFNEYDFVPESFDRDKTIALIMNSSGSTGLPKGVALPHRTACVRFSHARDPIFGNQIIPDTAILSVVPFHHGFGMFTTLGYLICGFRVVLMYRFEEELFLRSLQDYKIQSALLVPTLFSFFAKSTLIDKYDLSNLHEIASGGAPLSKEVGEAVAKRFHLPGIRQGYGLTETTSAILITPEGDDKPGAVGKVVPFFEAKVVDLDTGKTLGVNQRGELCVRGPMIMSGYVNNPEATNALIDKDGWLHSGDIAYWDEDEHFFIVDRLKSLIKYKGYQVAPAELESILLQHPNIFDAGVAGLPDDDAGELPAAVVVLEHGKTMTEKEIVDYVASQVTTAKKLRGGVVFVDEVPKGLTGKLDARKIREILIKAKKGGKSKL
# experimental.details: FLuc inhibitory activity for the follow-up compounds in a biochemical assay with Km concentrations of substrate
# recorded.conditions: purified FLuc, Km substrates, luminescence; series mostly up to 57.5 µM
Records with an inconclusive call do not appear. Calls of active or inactive are those of the source. Calls come from the whole dose curve; as a rule, active = well fitted inhibition curve with a large enough effect; inconclusive = small, poorly fitted or top-dose-only effect; inactive = no such curve, though single readings can be large or run the other way.
Choose the fitting class; nothing outside 1 (active), 0 (inactive) is accepted.

Please review the following examples before continuing.
* CC(C)Oc1ccc(C(=O)Nc2ccc(-c3nc4ccccc4s3)cc2)cc1 | 0
* CCOc1ccc(C(=O)Nc2ccccc2C(=O)O)cc1 | 1
* O=C(O)c1ccccc1NC(=O)c1ccccc1Nc1ccccc1 | 1
* COc1c(C)cccc1C(=O)Nc1ccc(-c2nc3ccccc3s2)c(Cl)c1 | 0
* Cc1ccccc1C(=O)Nc1cccc(C(=O)Nc2ccccc2C(=O)O)c1 | 1
* COc1cccc(-c2nc3ccccc3s2)c1 | 1

# fetch the recorded call for Cc1ccc2nc(-c3ccc(N)cc3)sc2c1 here
1

# fetch the recorded call for Cc1c(C)c2ccc(OCC(=O)Nc3ccccn3)c(C)c2oc1=O here
1

# fetch the recorded call for O=C(Nc1ccccc1-c1nc2ccccc2s1)c1cccnc1 here
0

# fetch the recorded call for O=C(O)c1ccc(NC(=O)c2cc(S(=O)(=O)N3CCCCC3)c(Cl)cc2Cl)cc1 here
0

These measurements were taken from PubChem BioAssay AID602357.
